Attribution: patent US20060079453A1

# SYSTEM UNDER TEST: HLA-DR DRB3*0101 (DR52) (Homo sapiens, UniProt P01903+P79483)
# MEASUREMENT PROTOCOL: biochemical
# Format: binding
READOUT TYPE: IC50

Look over these answered cases.
CHEMICAL STRUCTURE	READOUT TYPE	VALUE
CC(C)C[C@H](NC(=O)[C@H](CCC(=O)O)NC(=O)[C@H](CCCCN)NC(=O)[C@H](C)NC(=O)[C@H](CC(C)C)NC(=O)[C@@H](NC(=O)[C@H](CO)NC(=O)[C@H](CCCNC(=N)N)NC(=O)[C@@H](N)CC(=O)O)C(C)C)C(=O)N[C@@H](CCCCN)C(=O)N[C@@H](Cc1ccccc1)C(=O)N[C@H](C(=O)N[C@H](C(=O)N[C@@H](CC(C)C)C(=O)N[C@H](C(=O)O)C(C)C)[C@@H](C)O)C(C)C	IC50	> 14.4 µM
CC(C)C[C@H](NC(=O)CNC(=O)[C@H](CC(N)=O)NC(=O)[C@@H](N)Cc1ccc(O)cc1)C(=O)N[C@@H](CC(C)C)C(=O)N1CCC[C@H]1C(=O)N1CCC[C@H]1C(=O)N[C@@H](Cc1ccc(O)cc1)C(=O)N[C@@H](C)C(=O)N[C@@H](CO)C(=O)N[C@@H](CS)C(=O)N[C@@H](Cc1c[nH]cn1)C(=O)N[C@@H](CC(C)C)C(=O)N[C@H](C(=O)N[C@@H](CCC(=O)O)C(=O)O)[C@@H](C)O	IC50	> 15 µM

# ---- query compound ----
Indicate its recorded IC50; the compound in question is CC(C)C[C@H](NC(=O)[C@H](CCC(N)=O)NC(=O)[C@H](C)NC(=O)[C@H](CC(N)=O)NC(=O)[C@H](CCCCN)NC(=O)[C@@H](NC(=O)[C@H](CCCCN)NC(=O)[C@H](CC(N)=O)NC(=O)CN)C(C)C)C(=O)N[C@@H](C)C(=O)NCC(=O)N[C@@H](C)C(=O)N[C@@H](CCCCN)C(=O)NCC(=O)N[C@H](C(=O)O)C(C)C > 12.5 µM
